Tested on: HCV replicon 1b
Assay: ELISA, combined effect of HCV replication inhibitor with interferon αA
Format: cell-based
Conditions: Hepatitis C virus; read-out: IC50 of compound in combination
Source text: ELISA Protocol as in Example 38 The fractional inhibitory concentratin (FIC) can be used to identify a synergistic interaction.
pIC50: −log10 of the molar value.
value.kind: pIC50

Reported pIC50 of `COc1ccc(-c2ccc3ncnc(Nc4ccc(-n5cncn5)cc4)c3c2)cc1OC` : ≥ 7.17

====

System: Huh-9B
Test: Toxicity determination on the tox plate by methylene blue staining
Type: cell-based
Conditions: Huh-9B cells, parallel tox plate

molecule	Replicon TD50
CN(C)CCN(C)CCOc1ccc(-c2ccc3ncnc(Nc4ccc(-n5cncn5)cc4)c3c2)cc1F [Example 22]	* (* <25 μM)
COc1ccc(-c2ccc3ncnc(Nc4ccc(-n5nc(C(=O)N(C)C)nc5C)cc4)c3c2)cc1OC [Example 30]	* (* <25 μM)
